# pIC50 per record follows
# Target of assay: human histamine H3 receptor (Homo sapiens)
# Sequence (Q9Y5N1 whole entry): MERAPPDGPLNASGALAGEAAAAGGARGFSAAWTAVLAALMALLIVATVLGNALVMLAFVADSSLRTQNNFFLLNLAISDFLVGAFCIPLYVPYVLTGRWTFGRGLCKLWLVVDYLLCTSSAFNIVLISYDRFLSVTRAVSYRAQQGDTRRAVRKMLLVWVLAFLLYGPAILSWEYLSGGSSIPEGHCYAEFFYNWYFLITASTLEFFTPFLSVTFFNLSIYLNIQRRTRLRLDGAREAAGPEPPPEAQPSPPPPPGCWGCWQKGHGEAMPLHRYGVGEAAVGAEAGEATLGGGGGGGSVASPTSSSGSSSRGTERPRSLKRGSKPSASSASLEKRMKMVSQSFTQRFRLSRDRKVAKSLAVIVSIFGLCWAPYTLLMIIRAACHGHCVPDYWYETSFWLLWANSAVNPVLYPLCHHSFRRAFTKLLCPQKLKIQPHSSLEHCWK
# Assay: H3 GTPγS assay (SPA method), histamine H3 in vitro assay
# Type: biochemical
# Cond: membranes of cells expressing human H3; GTPγ[35S] SPA; antagonist testing with reference agonist at EC80 (30 nM); in one embodiment HCl salts tested; read-out: Potency (functional potency as indicated by IC50)
pIC50: −log10 of the molar value.

Reference set, count: 5
c1cc2cc(-c3ccc4c(c3)nc3n4CC4CCC(C3)N4C3CCC3)ccc2[nH]1 (stereo not drawn)
> 7.00
N#Cc1ccc(-c2ccc3c(c2)nc2n3CC3CC2CN3C2CCC2)cc1 (stereo not drawn)
> 6.00
c1coc(-c2ccc3c(c2)nc2n3CC3CCCN3CC2)c1 (stereo not drawn)
< 6.00
CC1Cc2nc3cc(Br)ccc3n2CCN1C1CCC1 (stereo not drawn)
> 7.00
c1ccc2c(c1)ncn2-c1ccc2c(c1)nc1n2CC2CC1CN2C1CCC1 (stereo not drawn)
> 6.00

Look up pIC50 for this compound: c1cn2cc(-c3ccc4c(c3)nc3n4CCCN4CCCCC4C3)ccc2n1 (single isomer, unassigned) [Compound 71] > 7.00

Which pIC50 is reported for this compound? c1ccc2c(c1)CCN(Cc1ccc3c(c1)nc1n3CCCN3CCCCC3C1)C2 (stereo not drawn) > 7.00

Look at this compound and give its reported pIC50. c1ccc2c(c1)CCN(Cc1ccc3c(c1)nc1n3CCN3CCCC[C@H]3C1)C2 > 7.00

Look up pIC50: c1cc2c(cc1CN1CCOCC1)nc1n2CCN(C2CCC2)C1 > 8.00

###

# Target of assay: human histamine H3 receptor (Homo sapiens)
# Assay: H3 GTPγS assay (SPA method), histamine H3 in vitro assay
# Format: biochemical
# Cond: membranes of cells expressing human H3; GTPγ[35S] SPA; antagonist testing with reference agonist at EC80 (30 nM); in one embodiment HCl salts tested; read-out: Potency (functional potency as indicated by IC50)
Property measured: IC50

Answered cases to consult:
c1cn2cc(-c3ccc4c(c3)nc3n4CCCN(C4CCC4)CC3)ccc2n1
< 10 nM
c1cnc(-c2ccc3c(c2)nc2n3CCN3CCCCC3C2)cn1 (stereo not drawn)
< 10 nM
c1cc2c(cc1CN1CCOCC1)nc1n2CC2CCC(C1)N2C1CCC1 (stereo not drawn)
< 100 nM
c1ccc2c(c1)CCN(Cc1ccc3c(c1)nc1n3CCN3CCCC[C@@H]3C1)C2 (single isomer, unassigned)
< 10 nM

Now for another entry.
# query: IC50 of entry CC(=O)Nc1ccc(-c2ccc3c(c2)nc2n3CC3CCC(C2)N3C2CCC2)cc1 (stereo not drawn) < 10 nM

###

# Target of assay: human histamine H3 receptor (Homo sapiens)
# Assay: H3 GTPγS assay (SPA method), histamine H3 in vitro assay
# Type: biochemical
Property: IC50; scope: individual molecules

Past entries and their recorded results:
Brc1ccc2c(c1)nc1n2CC2CCCN2CC1 (centres unmarked)
> 1000 nM
Brc1ccc2c(c1)nc1n2CCN2CCCC2C1 (centres unmarked)
< 100 nM
NCc1ccc(-c2ccc3c(c2)nc2n3CC3CCC(C2)N3C2CCC2)cc1 (centres unmarked)
< 10 nM
N#Cc1ccc(-c2ccc3c(c2)nc2n3CCN3CCC[C@H]3C2)cc1
< 100 nM
Brc1ccc2c(c1)nc1n2CCN2CCC[C@H]2C1
< 1000 nM

Quick check: IC50 on human histamine H3 receptor (Homo sapiens), item N#Cc1ccc(-c2ccc3c(c2)nc2n3C3CCC2CN(C2CCC2)C3)cc1 (centres unmarked) ? < 100 nM

human histamine H3 receptor (Homo sapiens) / IC50 / c1coc(-c2ccc3c(c2)nc2n3CC3CCC(C2)N3C2CCC2)c1 (centres unmarked) : value? < 100 nM

Provide value of IC50 for this record tested with human histamine H3 receptor (Homo sapiens): NCc1ccc(-c2ccc3c(c2)nc2n3C3CCC2CN(C2CCC2)C3)cc1 (centres unmarked) < 100 nM
